# target.of.assay: T1, cynomolgus monkey Protein S (cynomolgus monkey)
# T1 construct: also called cyno Protein S
# method: BLI Octet; antibody on anti-human Fc probe; Protein S 7.81-500 nM; 4 mM CaCl2
# Description: Binding characteristics of the Protein S antibodies were also further characterized using Octet. Using the Octet System (Sartorius), the binding of each antibody to both human and cynomolgus monkey (“cyno” in Table 10) Protein S was determined. […] Next, the probes were placed into buffer and the dissociation rates were measured.
The following binders are listed with their measured koff values.

{"binder": "Antibody 12 (antibody, V domains shown, Same variable regions as Antibody 24) VH: QVQLQESGPGLVKPSETLSLTCGVSGGSISSTNWWSWVRQPPGKGLEWIGEIYQTGSTDYDPSLKSRVTISIDKSKNQFSLKLYSVTAADTAVYYCARRFGELDYWGQGTLVTVSS VL: EIVMTQSPATLSVSPGERATLSCRASQSVTSNLAWYQQKPGQAPRLLIYDASTRATGIPARFSGSGSGTEFTLTISSLQSEDFAIYYCQQYNNWPTFGQGTRLEIK", "units.of.measure": "s⁻¹", "relation.operator": "=", "koff": 0.00291}
{"binder": "Antibody 2 (antibody, V domains shown, Same variable regions as Antibody 14) VH: QVQLQESGPGLVKPSQTLSLTCTVSGGSITSDGYHWSWIRQYPGKGLDWIGYIYYTGNTYYNPSLKSRVTISVGTSQNQFSLKLISVTAADTAVYYCARRLSTGPYFDYWGQGTLVTVSS VL: QSALTQPASVSGSPGQSITISCTGTSSDVGGYEFVSWYQHHPGKAPKLMIYDVSSRPSGVSNRFSGSKSGNTASLTISGLQAEDEADYYCSSYTRSSTVVFGGGARLTVL", "units.of.measure": "s⁻¹", "relation.operator": "<", "koff": "1e-07"}
{"binder": "Antibody 8 (antibody, V domains shown, Same variable regions as Antibody 20) VH: QVQLQESGPGLVKPSETLSLTCAVSGYSISSGYYWGWIRQPPGKGLDWIGSIYYSGSTYYNPSLKSRVTISVDTSKNQISLKLSSVTAADTAVYYCATTYSDIVTGYYNDAFDIWGQGTMVTVSS VL: EIVMTQSPATLSVSPGERATLSCRASQRINSNLAWYQQKPGQAPRLLIYGASTRATGIPARFSGSGSGTEFTLTISSLQSEDFAAYYCQQYDNWPLTFGGGTKVEIK", "units.of.measure": "s⁻¹", "relation.operator": "=", "koff": 0.000133}
